Reference for the values: patent US6737383B1

- Test system: crabgrass
- ASSAY OVERVIEW: Test B pre/postemergence crabgrass
- Format: in vivo, Digitaria sanguinalis
- TEST SETTINGS: Rate 250 g/ha, Postemergence; scale of 0 to 10 where 0 is no effect and 10 is complete control
PROPERTY LABEL: Plant response rating, Crabgrass
Just the number.

Examples with answers:
In [3]: df
Out[3]:
                                   molecule                    property_label  result_value
0  CCCCCn1c(=O)on(C(=O)N(c2ccc(Cl)cc2)C(C)C)c1=O [Compound 528]  Plant response rating, Crabgrass             9
1  CCC(=O)Cn1c(=O)on(C(=O)N(c2ccc(Cl)cc2)C(C)C)c1=O [Compound 553]  Plant response rating, Crabgrass             8
2  CC(=O)C(C)n1c(=O)on(C(=O)N(c2ccccc2)C(C)C)c1=O (centres unmarked) [Compound 576]  Plant response rating, Crabgrass             9
3  COC(=O)CCCn1c(=O)on(C(=O)N(c2ccccc2)C(C)C)c1=O [Compound 572]  Plant response rating, Crabgrass             6

For record CC(Cl)=CCn1c(=O)on(C(=O)N(c2ccccc2)C(C)C)c1=O [Compound 573] the listed Plant response rating, Crabgrass is 9
